B1: Osa-1-4 twister ribozyme (parent)
chain: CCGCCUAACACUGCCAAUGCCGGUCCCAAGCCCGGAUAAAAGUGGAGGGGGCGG

# Variants of: B1
# experimental-details: self-cleavage, relative activity (ratio to wild type); higher = more cleavage; co-transcriptional
The threshold is inclusive: self-cleavage of exactly 0.08 counts as rule met; values below receive rule not met.

Check if self-cleavage >= 0.08 (inclusive). Item: A29U G51U
rule not met

Check if self-cleavage >= 0.08 (inclusive). Item: A17C C31G
rule not met

Check if self-cleavage >= 0.08 (inclusive). Item: C33G G54U
rule met

Check if self-cleavage >= 0.08 (inclusive). Item: C25G G34U
rule not met

Check if self-cleavage >= 0.08 (inclusive). Item: A38C A8U
rule met

Check if self-cleavage >= 0.08 (inclusive). Item: A36G G13C
rule not met
